Taken from patent EP2987533B1.

- Test system: MDA-MB-231/ATCC
- ASSAY_NAME: NCI one-dose SRB growth assay
- Format: cell-based
- CONDITION_CONTEXT: Homo sapiens; MDA-MB- 231/ATCC (Breast Cancer), 10^-5 M, 48 h; read-out: % Growth Inhibition (GI %)

- CHEM_SMILES: "O=C(O)c1cn(C2CC2)c2cc(N3CCN(S(=O)(=O)c4ccc(Cl)c(Cl)c4)CC3)c(F)cc2c1=O"
  VALUE_QUALIFIER: "="
  inhibition at 10 µM [%]: 63.4
- CHEM_SMILES: "CCn1cc(C(=O)O)c(=O)c2cc(F)c(N3CCN(S(=O)(=O)c4ccc(Cl)cc4Cl)CC3)cc21"
  VALUE_QUALIFIER: "="
  inhibition at 10 µM [%]: 74.5
- CHEM_SMILES: "O=C(O)c1cn(C2CC2)c2cc(N3CCN(S(=O)(=O)c4ccc(Cl)cc4Cl)CC3)c(F)cc2c1=O"
  VALUE_QUALIFIER: "<"
  inhibition at 10 µM [%]: 10
- CHEM_SMILES: "Cc1cc(C)c(S(=O)(=O)N2CCN(c3cc4c(cc3F)c(=O)c(C(=O)O)cn4C3CC3)CC2)c(C)c1"
  VALUE_QUALIFIER: "="
  inhibition at 10 µM [%]: 15.4
